Test system: COLO 205 colon
Test: NCI-60 one-dose screen, 48 h (100 = growth as untreated, 0 = no growth, -100 = all killed)
Details: 10 µM
About 83,000 compounds went through this panel and 20% of them were active in at least one assay; those are over-represented in the sample as a whole.
MEASURED_ATTRIBUTE: growth (%)
Please reply with the bare figure in % and do not write the unit itself.

As a guide, the following entries are already answered.
q: Provide COLO 205 colon growth reading for "C=CCNCCN1C(=O)c2ccc3c4c(ccc(c24)C1=O)C(=O)N(CCNCC=C)C3=O" .
a: -90.5

q: Provide COLO 205 colon growth reading for "O=C1/C=C/[C@@H](O)[C@@H]2C[C@@H](O)C[C@H]2/C=C/CCC[C@@H](C(F)(F)F)O1" .
a: 22

Shift focus to the following entry.
q: Provide COLO 205 colon growth reading for "COc1cc2c3c(n([C@H]4CCOC4)c(=O)c2cc1OC)-c1cc2c(cc1C3=O)OCO2" .
a: 35.8

###

// values below are reported growth
Test system: SK-MEL-28 melanoma
Experiment: NCI-60 one-dose screen, 48 h (100 = growth as untreated, 0 = no growth, -100 = all killed)
Details: 10 µM
About 83,000 compounds went through this panel and 20% of them were active in at least one assay; those are over-represented in the sample as a whole.
Please reply with the bare figure in % and do not write the unit itself.

As a guide, the following entries are already answered.
q: Provide only the value of recorded growth for "CN1CCN(CC(=O)Nc2cccc(-n3cc(-c4ccncc4)c(-c4ccc(Cl)c(O)c4)n3)c2)CC1"
a: 60.8

q: Provide only the value of recorded growth for "CN(C)CCCOc1ccccc1NC1=C(Cl)C(=O)C(Nc2ccccc2OCCCN(C)C)=C(Cl)C1=O"
a: 14.1

q: Provide only the value of recorded growth for "C[N+]1(CCCCC[N+]2(C)CCCC2)CCCC1"
a: 105

Further cases:
q: Provide only the value of recorded growth for CC(CN(C)C)Oc1ccccc1NC1=C(Cl)C(=O)C(Nc2ccccc2OC(C)CN(C)C)=C(Cl)C1=O (configuration not stated)
a: -64.9

q: Provide only the value of recorded growth for "COc1ccc(-c2nn(-c3cccc(Cl)c3)cc2-c2nc(N)[nH]c(=O)c2C#N)cc1"
a: 90.4

###

System: EKVX NSCLC
Assay: NCI-60 one-dose screen, 48 h (100 = growth as untreated, 0 = no growth, -100 = all killed)
Conditions: 10 µM
The panel holds about 83,000 compounds, 20% with a hit somewhere; the sample as a whole holds those more often.
Please use condition met whenever growth is not below 60%, and condition not met whenever it is.

Known results for compounds:
q: In plain terms: is recorded growth at least 60% for "COc1cc2c3c(n([C@@H]4CCOC4)c(=O)c2cc1OC)-c1cc2c(cc1C3=O)OCO2" ?
a: condition met

q: In plain terms: is recorded growth at least 60% for "COc1ccc(-c2cc(-c3ccc(Cl)cc3)nc(SCCCC(=O)NO)n2)cc1OC" ?
a: condition not met

q: In plain terms: is recorded growth at least 60% for "Cc1c[nH]c(=O)n(Cc2nnc(CCC(=O)c3nc4ccccc4[nH]3)o2)c1=O" ?
a: condition not met

Further cases:
q: In plain terms: is recorded growth at least 60% for "C=CCn1c(SCC(=O)Nc2ccc(C(=O)/C=C/c3ccc(Cl)cc3)cc2)nnc1-c1cc(-c2ccccc2)nc2ccccc12" ?
a: condition met

q: In plain terms: is recorded growth at least 60% for "CC(C)N(CCOc1ccc(-c2nc3sccn3c2-c2ccnc(S(C)(=O)=O)n2)cc1)C(C)C" ?
a: condition met

###

System: PC-3 prostate
Test: NCI-60 one-dose screen, 48 h
Conditions: 10 µM
Description: Growth inhibition of the PC-3 human tumor cell line is measured as a screen for anti-cancer activity. Cells are grown in 96 well plates and exposed to the test compound for 48 hours. Compounds are tested at a single concentration, which is 10^-5 M for most compounds. The reported endpoint is percent growth (GI% or GIPRCNT), where numbers from 0 - 100% represent growth inhibition, and numbers from -100% - 0 represent cell death. For example, a value of 40 represents 60% growth inhibition. […]
The panel holds about 83,000 compounds, 20% with a hit somewhere; the sample as a whole holds those more often. The source made the active and inactive calls. Rule for the calls: active = growth percent below 10; inactive = the rest.
Outcome field: choose from T = active, F = inactive

Known results for compounds:
q: Short answer needed: outcome of this test for "Nc1nc(-c2ccc(Cl)cc2)cc(-c2cc3ccccc3oc2=O)n1" ?
a: F

q: Short answer needed: outcome of this test for CC(C)=CCC/C(C)=C/CC/C(C)=C/CC/C=C(\C)CC/C=C(\C)CCC(=O)Nc1ccn(C2OC(CO)C(O)C2(F)F)c(=O)n1 (configuration not stated) ?
a: F

q: Short answer needed: outcome of this test for "Cc1cccc(N=Cc2ccccc2O)c1C" ?
a: F

q: Short answer needed: outcome of this test for "O=C(NCCCNS(=O)(=O)c1ccc(Cl)cc1)Nc1ccc(-n2cc(-c3ccncc3)c(-c3ccc(Cl)c(O)c3)n2)cc1" ?
a: F

q: Short answer needed: outcome of this test for "COc1ccc(Cl)cc1Nc1nc(C(F)(F)F)ccc1C(=O)N/N=C/c1cc(OC)c(OC)c(OC)c1" ?
a: T

q: Short answer needed: outcome of this test for "CCOS(=O)(=O)c1c(C(C)C)cc(C(C)C)cc1C(C)C" ?
a: F

q: Short answer needed: outcome of this test for "COc1cc(/C=C/c2cc(/C=C/c3ccc(O)c(OC)c3)n(C(=O)Nc3ccc(C)cc3)n2)ccc1O" ?
a: T

q: Short answer needed: outcome of this test for "CCN(CC)CCOc1cccc2c1C(=O)c1cccc(OCCN(CC)CC)c1C2=O" ?
a: F

q: Short answer needed: outcome of this test for CCOC(=O)C1=CSC2=NC3=C(CCC/C3=C\c3cc(OC)c(OC)c(OC)c3)C(c3cc(OC)c(OC)c(OC)c3)N12 (configuration not stated) ?
a: F

q: Short answer needed: outcome of this test for "O=C1c2ccccc2C(=O)c2c1ccc(C(Br)Br)c2[N+](=O)[O-]" ?
a: F

Further cases:
q: Short answer needed: outcome of this test for COc1ccc(/C=C2\CCCC3=C2NC(N)=NC3c2ccc(OC)c(OC)c2)cc1OC (configuration not stated) ?
a: F

q: Short answer needed: outcome of this test for "O=C1c2ccccc2C(=O)c2c1ccc(C(Br)Br)c2Cl" ?
a: F

###

Test system: SK-OV-3 ovarian
Test: NCI-60 one-dose screen, 48 h (100 = growth as untreated, 0 = no growth, -100 = all killed)
Details: 10 µM
The panel holds about 83,000 compounds, 20% with a hit somewhere; the sample as a whole holds those more often.
MEASURED_ATTRIBUTE: growth (%)
Please reply with the bare figure in % and do not write the unit itself.

As a guide, the following entries are already answered.
q: Provide only the value of recorded growth for "Nc1cc(Br)c(-c2nn3c(CCC(=O)c4nc5ccccc5[nH]4)nnc3s2)c(Br)c1"
a: 113

q: Provide only the value of recorded growth for "COc1ccc(-c2cc(-c3ccc(Cl)cc3)nc(SCCCC(=O)NO)n2)cc1"
a: 5.99

q: Provide only the value of recorded growth for "CCOC(=O)Cn1c(=O)c2sc3ncccc3c2n2nnc(-c3ccccc3)c12"
a: 94

q: Provide only the value of recorded growth for Clc1ccc(/C=C2\CCCC3C2=Nc2ccccc2NC3c2ccc(Cl)cc2)cc1 (stereo not drawn)
a: 70.9

q: Provide only the value of recorded growth for CC(=O)[C@@]12O[C@](C)(c3ccccc3)O[C@@H]1CC1C3CCC4=CC(=O)CC[C@]4(C)C3CC[C@@]12C (stereo partly drawn)
a: 99.7

q: Provide only the value of recorded growth for C=C(NC(=O)C(=C)NC(=O)c1csc(C2=NC3c4csc(n4)C4NC(=O)c5csc(n5)C(C(C)(O)C(C)O)NC(=O)C5CSC(=N5)C(=CC)NC(=O)C(C(C)O)NC(=O)c5csc(n5)C3(CC2)NC(=O)C(C)NC(=O)C(=C)NC(=O)C(C)NC(=O)C(C(C)CC)NC2C=Cc3c(C(C)O)cc(nc3C2O)C(=O)OC4C)n1)C(N)=O (stereo not drawn)
a: 99.8

q: Provide only the value of recorded growth for CCCC1(CN2c3ccccc3Sc3ccc(Cl)cc32)CCN(CC)C1 (stereo not drawn)
a: 21.7

Further cases:
q: Provide only the value of recorded growth for "COc1ccc(/C=C/C(=O)C(=O)/C=C/c2ccc(OC)c(OC)c2)cc1OC"
a: 97.8

###

// values below are reported growth
Test system: SK-MEL-28 melanoma
Test: NCI-60 one-dose screen, 48 h (100 = growth as untreated, 0 = no growth, -100 = all killed)
Conditions: 10 µM
Compounds without any hit were thinned out: in the full panel of roughly 83,000, 20% have a hit.
Please reply with the bare figure in % and do not write the unit itself.

As a guide, the following entries are already answered.
q: Provide only the value of recorded growth for "CCOC(=O)c1cc(C(=O)c2cc(OC)cc(OC)c2)n2ncc3ccccc3c12"
a: 63

q: Provide only the value of recorded growth for "N#Cc1c(-c2ccc(Cl)cc2)n(O)c2ccccc12"
a: 15.6

q: Provide only the value of recorded growth for "CCn1cc(C(=O)O)c(=O)c2cc(F)c(N3CCNCC3)cc21"
a: 115

q: Provide only the value of recorded growth for "COc1cc2nc(SCC(=O)Nc3cc(OC)c(OC)c(OC)c3)n(Cc3ccccc3)c(=O)c2cc1OC"
a: 60.5

q: Provide only the value of recorded growth for "O=C(O)Cc1ccc(O)c(O)c1"
a: 103

q: Provide only the value of recorded growth for "CCN(CC)CCOc1ccc2c(c1O)C(=O)c1ccccc1C2=O"
a: 102

q: Provide only the value of recorded growth for "Cc1cc(SC#N)cc(C(C)(C)C)c1O"
a: 105

q: Provide only the value of recorded growth for COc1ccc(/C(=N\N)C(=O)c2ccccc2)cc1 (tested in a mixture with another compound)
a: 102

Further cases:
q: Provide only the value of recorded growth for "COc1cccc(N=Nc2cccc(OC)c2)c1"
a: 99.6

q: Provide only the value of recorded growth for "CCOC(=O)c1cc(C(=O)c2cc(OC)c(OC)c(OC)c2)n2ccc(-c3cc[n+](CC(=O)c4cc(OC)c(OC)c(OC)c4)cc3)cc12"
a: 98.3

q: Provide only the value of recorded growth for CC[C@@H](C(=O)[C@@H](C)[C@@H](O)[C@H](C)[C@@H]1O[C@@H]([C@@H](CC)C(=O)N(CC)CC)CC[C@@H]1C)C1O[C@]2(C=CC(=O)[C@]3(CC[C@@](C)([C@H]4CC[C@](O)(CC)[C@H](C)O4)O3)O2)[C@H](C)C[C@@H]1C (stereo partly drawn)
a: 19.5

q: Provide only the value of recorded growth for "O=C(CCCCNC(=O)c1nc(-c2ccccc2)n(-c2ccccc2)n1)NO"
a: 75.2

q: Provide only the value of recorded growth for "O=C(N/N=C/c1c(Cl)cccc1Cl)c1ccccc1Nc1cccc(C(F)(F)F)c1"
a: 99.5
